- protocol_description: Selectivity index, ratio of CC50 for human HepG2 cells to EC50 for RSV infected in human HepG2 cells
- Type: toxicity, cell-based
- particulars: read-out: Ratio CC50/EC50
experimental_endpoint: selectivity ratio

[[record]]
structure_as_smiles = "Cc1cn([C@H]2CO[C@H]3[C@@H]2OCc2nc4cc(Br)c(C)c(Br)c4n23)nn1"
measured_value = 6.68

[[record]]
structure_as_smiles = "NC(=O)c1ncn([C@@H]2O[C@H](CO)[C@@H](O)[C@H]2O)n1"
measured_value = 29.2

[[record]]
structure_as_smiles = "Brc1cc2nc3n(c2cc1Br)[C@H]1OC[C@H](n2cc(C4CC4)nn2)[C@H]1OC3"
measured_value = 6.39

[[record]]
structure_as_smiles = "Brc1cc2nc3n(c2cc1Br)[C@H]1OC[C@H](n2cc(COc4ccccc4)nn2)[C@H]1OC3"
measured_value = 5.73


----------
- protocol_description: Cytotoxicity against human HepG2 cells measured after 24 hrs by MTT assay
- Assay type: toxicity, cell-based
The following molecules are listed with their measured CC50 at 24 h values.
experimental_endpoint: CC50 at 24 h (µM)

[[record]]
molecule = "NC(=O)c1ncn([C@@H]2O[C@H](CO)[C@@H](O)[C@H]2O)n1 [RIBAVIRIN]"
measured_value = 246

[[record]]
molecule = "Cc1c(Br)cc2nc3n(c2c1Br)[C@H]1OC[C@H](n2cc(-c4ccccc4)nn2)[C@H]1OC3"
measured_value = 53.3

[[record]]
molecule = "OCc1cn([C@H]2CO[C@H]3[C@@H]2OCc2nc4cc(Br)c(Br)cc4n23)nn1"
measured_value = 104

[[record]]
molecule = "Brc1cc2nc3n(c2cc1Br)[C@H]1OC[C@H](n2cc(COc4ccccc4)nn2)[C@H]1OC3"
measured_value = 121

[[record]]
molecule = "Brc1cc2nc3n(c2cc1Br)[C@H]1OC[C@H](n2cc(C4CC4)nn2)[C@H]1OC3"
measured_value = 40

[[record]]
molecule = "Cc1cn([C@H]2CO[C@H]3[C@@H]2OCc2nc4cc(Br)c(C)c(Br)c4n23)nn1"
measured_value = 94.6

[[record]]
molecule = "CCCCCc1cn([C@H]2CO[C@H]3[C@@H]2OCc2nc4cc(Br)c(Br)cc4n23)nn1"
measured_value = 237

[[record]]
molecule = "CCOC(=O)c1cn([C@H]2CO[C@H]3[C@@H]2OCc2nc4cc(Br)c(Br)cc4n23)nn1"
measured_value = 26.9

[[record]]
molecule = "OCCCc1cn([C@H]2CO[C@H]3[C@@H]2OCc2nc4cc(Br)c(Br)cc4n23)nn1"
measured_value = 150

[[record]]
molecule = "Brc1cc2nc3n(c2cc1Br)[C@H]1OC[C@H](n2cc(-c4ccccc4)nn2)[C@H]1OC3"
measured_value = 63.6

[[record]]
molecule = "OCCc1cn([C@H]2CO[C@H]3[C@@H]2OCc2nc4cc(Br)c(Br)cc4n23)nn1"
measured_value = 70.1

[[record]]
molecule = "CCCCCCc1cn([C@H]2CO[C@H]3[C@@H]2OCc2nc4cc(Br)c(Br)cc4n23)nn1"
measured_value = 52.3

